experimental protocol: Stability of cysteine and cystine-containing peptides in 20% v/v DMSO in WFI (UPLC-UV-MS purity)
Type: physicochemical
experimental parameters: Time 1 h, room temperature
Ends that are not written are not given here.
readout: Purity (% a/a)
Kindly answer with a numeric value in % a/a, unit omitted.

What measured Purity (% a/a) goes with HLSLRGLPVCAFSSAGPCALRFTSA [Cystine(C(C)) containing SEQ ID NO: 1] ? 96.67

Name the recorded Purity (% a/a) for HLSLRGLPVCAFSSAGPCALRFTSA [Cysteine (C) containing SEQ ID NO: 1, reference compound] . 86.88

# query: Purity (% a/a) of entry AARLCCQLDPARDVLCLRPVGAESR [Cysteine (C) containing SEQ ID NO: 4, reference compound] 90.72

Any idea what its Purity (% a/a) is? The sequence is VLSRKYTSFPWLLGCTANWILRGTSFVYVPSALNPA [Cystine(C(C)) containing SEQ ID NO: 3] (VLSRKYTSFPWLLGC(Cys)TANWILRGTSFVYVPSALNPA) [HBV Pol fragment SLP with cysteinylated cysteine] 97.48

So what does the record say about Purity (% a/a) for AARLCCQLDPARDVLCLRPVGAESR [Cystine(C(C)) containing SEQ ID NO: 4] ? 94.26

Returns the measured Purity (% a/a) for the input sequence. Input: VLSRKYTSFPWLLGCTANWILRGTSFVYVPSALNPA [Cysteine (C) containing SEQ ID NO: 3, HBV Pol fragment, unmodified cysteine comparator, reference compound] 93.48

###

So I've got a bunch of sequences here, and I need their Assay (net peptide content) (mg/vial) values.
experimental protocol: Stability of peptide mixtures under long term and accelerated storage (UPLC)
Type: physicochemical
experimental parameters: peptide in mixture of 6 peptides; Storage at 5 ± 3° C., T2M
Ends that are not written are not given here.
Note: a bare number is incomplete; add the unit.

Item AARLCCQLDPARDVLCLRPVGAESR [Cystine(C(C)) containing SEQ ID NO: 4] has what recorded Assay (net peptide content) (mg/vial)? 0.21 mg/vial

Can you look up the measured Assay (net peptide content) (mg/vial) of LSAMSTTDLEAYFKDCLFKDWEELG [SEQ ID 2] for me? 0.25 mg/vial

Need Assay (net peptide content) (mg/vial), item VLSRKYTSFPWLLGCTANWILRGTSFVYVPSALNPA [Cystine(C(C)) containing SEQ ID NO: 3] (VLSRKYTSFPWLLGC(Cys)TANWILRGTSFVYVPSALNPA) [HBV Pol fragment SLP with cysteinylated cysteine] 0.24 mg/vial

I would be grateful if you could share the reported Assay (net peptide content) (mg/vial) for YPALMPLYACIQAKQAFTFSPTYKAFLSKQYMNLYPVAR (cysteinylated cysteine) [SEQ ID 6, HBV Pol fragment SLP with cysteinylated cysteine] . 0.21 mg/vial

What measured Assay (net peptide content) (mg/vial) goes with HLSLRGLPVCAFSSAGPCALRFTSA [Cystine(C(C)) containing SEQ ID NO: 1] ? 0.24 mg/vial

// Assay (net peptide content) (mg/vial) lookup, key: VVNHYFQTRHYLHTLWKAGILYKRETTRSASFCGSPYSW (VVNHYFQTRHYLHTLWKAGILYKRETTRSASFC(Cys)GSPYSW) [SEQ ID 5, HBV Pol fragment SLP with cysteinylated cysteine] 0.21 mg/vial
